Hey, just so you know, these numbers are from ChEMBL document CHEMBL3046215.

- Test system: Meloidogyne incognita
- experimentNotes: Nematicidal activity against second-stage juvenile Meloidogyne incognita (root-knot nematode) assessed as paralysis measured after 1 hr
- Assay type: functional, organism-based
measuredEndpoint: EC50 (µg/mL)
Reply with just the number (in µg/mL).

Entry CCCCCCCC(C)O (configuration not stated) [2-NONANOL] : reported EC50 = ?
130

Entry CCCCCCCC(C)=O [2-NONANONE] : reported EC50 = ?
279

Entry CCCCCCCCC(C)=O [2-DECANONE] : reported EC50 = ?
235

Entry CCCCCCCCOC(C)=O [OCTYL ACETATE] : reported EC50 = ?
61.6
